test_system: TNIK (Homo sapiens (Human))
Sequence (Q9UKE5 whole entry): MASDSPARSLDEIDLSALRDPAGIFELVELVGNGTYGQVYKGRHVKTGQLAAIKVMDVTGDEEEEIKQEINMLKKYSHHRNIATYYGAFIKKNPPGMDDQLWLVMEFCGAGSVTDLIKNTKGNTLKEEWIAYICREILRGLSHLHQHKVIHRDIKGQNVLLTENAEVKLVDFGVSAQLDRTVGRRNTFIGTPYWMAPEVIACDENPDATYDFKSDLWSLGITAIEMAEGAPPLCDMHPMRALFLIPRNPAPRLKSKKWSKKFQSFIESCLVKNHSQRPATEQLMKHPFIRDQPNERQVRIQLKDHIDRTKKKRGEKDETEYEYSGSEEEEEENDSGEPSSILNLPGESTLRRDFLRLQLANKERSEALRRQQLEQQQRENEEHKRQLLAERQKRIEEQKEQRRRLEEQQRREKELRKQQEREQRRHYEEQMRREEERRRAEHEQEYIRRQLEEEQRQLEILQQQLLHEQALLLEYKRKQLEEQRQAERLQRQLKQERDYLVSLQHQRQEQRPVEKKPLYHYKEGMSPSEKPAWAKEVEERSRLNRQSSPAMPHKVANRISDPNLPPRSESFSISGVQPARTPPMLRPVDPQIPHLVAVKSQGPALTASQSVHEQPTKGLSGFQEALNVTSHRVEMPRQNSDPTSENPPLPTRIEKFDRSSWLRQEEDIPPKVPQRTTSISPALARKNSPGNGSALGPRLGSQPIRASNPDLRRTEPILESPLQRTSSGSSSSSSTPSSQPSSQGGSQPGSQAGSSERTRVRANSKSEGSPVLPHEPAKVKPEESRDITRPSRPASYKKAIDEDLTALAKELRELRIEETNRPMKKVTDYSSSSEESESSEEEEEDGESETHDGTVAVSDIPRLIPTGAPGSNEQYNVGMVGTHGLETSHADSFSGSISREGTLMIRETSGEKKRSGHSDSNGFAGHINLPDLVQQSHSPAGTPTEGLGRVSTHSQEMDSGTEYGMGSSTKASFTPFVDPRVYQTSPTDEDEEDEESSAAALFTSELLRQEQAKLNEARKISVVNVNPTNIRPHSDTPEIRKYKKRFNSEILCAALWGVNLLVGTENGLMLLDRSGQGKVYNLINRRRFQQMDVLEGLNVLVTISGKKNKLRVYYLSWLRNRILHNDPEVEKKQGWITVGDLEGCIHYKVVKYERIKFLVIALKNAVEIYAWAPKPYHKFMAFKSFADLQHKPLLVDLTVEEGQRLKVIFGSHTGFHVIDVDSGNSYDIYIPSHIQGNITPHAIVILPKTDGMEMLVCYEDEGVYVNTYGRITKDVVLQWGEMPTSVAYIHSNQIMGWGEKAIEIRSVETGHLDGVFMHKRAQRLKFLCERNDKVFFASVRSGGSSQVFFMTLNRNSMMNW
assay_method_text: TNIK enzymatic assay (radiometric kinase inhibition)
Type: biochemical
condition_summary: TNIK enzymatic assay, Table 1; read-out: IC50
pIC50: −log10 of the molar value.
value_kind: pIC50

P: Cc1ccc(NC(=O)c2ccc(-c3c(-c4ccc(F)cc4)ncn3C3CCCCC3)o2)cc1C
Q: O=C(Nc1ccc(F)cc1F)c1ccc(-c2c(-c3ccc(F)cc3)ncn2C2CCCCC2)o1
Choose between P and Q : whose measured pIC50 value is numerically larger? Your answer should be the label of the entry you select.
Q
(Q: 7.42, P: 7.05)

1: Cc1ccc(NC(=O)c2ccc(-c3c(-c4ccc(F)cc4)ncn3C3CCCC3)o2)cc1Cl
2: Cc1ccc(Cl)cc1NC(=O)c1ccc(-c2c(-c3ccc(F)cc3)ncn2C2CCCC2)o1
3: COc1ccccc1NC(=O)c1ccc(-c2c(-c3ccc(F)cc3)ncn2C2CCCCC2)o1
4: COc1ccc(NC(=O)c2ccc(-c3c(-c4ccc(C)cc4)ncn3C3CCCCC3)o2)cc1
Hey, can you sort those compounds up there by pIC50, smallest first? # the answer lists labels in the order requested
4, 1, 2, 3

P: Cc1ccc(C)c(NC(=O)c2ccc(-c3c(-c4ccc(F)cc4)ncn3C3CCCC3)o2)c1
Q: O=C(Nc1ccc(F)cc1)c1ccc(-c2c(-c3ccc(F)cc3)ncn2C2CCCC2)o1
Of P versus Q , which is the one with smaller reported pIC50? Your answer should be the label of the entry you select.
P
(P: 6.87, Q: 7.26)

a: Cc1ccc(NC(=O)c2ccc(-c3c(-c4ccc(F)cc4)ncn3C3CCCC3)o2)cc1F
b: CC(=O)c1ccc(NC(=O)c2ccc(-c3c(-c4ccc(F)cc4)ncn3C3CCCC3)o2)cc1
c: Cc1ccc(NC(=O)c2ccc(-c3c(-c4ccc(F)cc4)ncn3C3CCCCC3)o2)c(Cl)c1
Hey, can you sort those compounds up there by pIC50, smallest first? # the answer lists labels in the order requested
a, c, b
(a: 6.99, c: 7.72, b: 7.96)

A: COc1ccc(NC(=O)c2ccc(-c3c(-c4ccc(F)cc4)ncn3C3CCCCC3)o2)cc1OC
B: Cc1cc(C)c(NC(=O)c2ccc(-c3c(-c4ccc(F)cc4)ncn3C3CCCC3)o2)c(C)c1
Of A versus B , which is the one with smaller reported pIC50? Your answer should be the label of the entry you select.
B
